Recorded values, source the Human Domainome abundance scans (Beltran et al. 2025).

// reported abundance fitness for each item listed
B1: Intersectin-1, residues 1156 to 1213; numbered along this chain, Q15811 (parent)
chain: AVCQVIGMYDYTAQNDDELAFNKGQIINVLNKEDPDWWKGEVNGQVGLFPSNYVKLTT

- Variants of: B1
- test_summary: abundance fitness (aPCA) (normalised: wild type 0, dead -1); higher = more abundant; growth selection in yeast, the domain comes from the species named
- assay_conditions: Homo sapiens
Please respond with just the number, no unit label.

mutation_label=Y11E measured_property="abundance fitness" experimental_value=-0.809

q: Dear colleague, I am looking for the recorded abundance fitness of the following variant: "G40L"
a: -0.783

q: Dear colleague, I am looking for the recorded abundance fitness of the following variant: "L19P"
a: -0.806
